Entries annotated with measured MIC
System: Methicillin Resistant Staphylococcus aureus strain USA 300 (NRS384)
Assay: MIC, broth micro-dilution technique (CLSI)
Assay type: cell-based
Details: Staphylococcus aureus, 22 h, read-out: MIC (μg/mL) S. aureus
Description: In vitro antimicrobial activity of each compound was determined by measuring minimal inhibitor concentrations (MICs) using the broth micro-dilution technique as approved by the Clinical and Laboratory Standards Institute (CLSI) (Methods for Dilution Antimicrobial Susceptibility Tests for Bacteria that Grow Aerobically; Approved Standard—Eighth Edition. CLSI document M07-A8. Wayne, Pa.: Clinical and Laboratory Standards; 2009). […]
measured.attribute: MIC (µg/mL)

compound.structure.string	system.name	measured.attribute	experimental.value
CCCCCCCCCCNCCC(=O)N[C@@H](CCCCN)C(=O)N(C)[C@@H]1C(=O)N[C@@H](C)C(=O)N[C@H](C(=O)O)Cc2ccc(O)c(c2)-c2cc1ccc2O	Methicillin Resistant Staphylococcus aureus strain USA 300 (NRS384)	MIC	29
CCCCCCCCCCNCCC(=O)N[C@@H](CCCCN)C(=O)N(C)[C@@H]1C(=O)N[C@@H](C)C(=O)N[C@H](C(=O)N[C@@H](C)C(=O)COC(C)=O)Cc2ccc(O)c(c2)-c2cc1ccc2OCCN	Methicillin Resistant Staphylococcus aureus strain USA 300 (NRS384)	MIC	0.35
CCCCCCCCC(=O)N[C@@H](CCN)C(=O)N(C)[C@@H]1C(=O)N[C@@H](C)C(=O)N[C@H](C(=O)O)Cc2ccc(OCCN)c(c2)-c2cc1ccc2OCCN	Methicillin Resistant Staphylococcus aureus strain USA 300 (NRS384)	MIC	4
CCCCCCCCc1ccc(C(=O)N[C@@H](CCCN)C(=O)N(C)[C@@H]2C(=O)N[C@@H](C)C(=O)N[C@H](C(=O)O)Cc3ccc(OCCN)c(c3)-c3cc2ccc3OCCN)c(F)c1	Methicillin Resistant Staphylococcus aureus strain USA 300 (NRS384)	MIC	0.38
CCCCc1ccc(-c2ccc(C(=O)N[C@@H](CCCCN)C(=O)N(C)[C@@H]3C(=O)N[C@@H](C)C(=O)N[C@H](C(=O)N[C@@H](C)B4O[C@@H]5C[C@@H]6C[C@@H](C6(C)C)[C@]5(C)O4)Cc4ccc(OCCN)c(c4)-c4cc3ccc4OCCN)cc2)cc1	Methicillin Resistant Staphylococcus aureus strain USA 300 (NRS384)	MIC	0.13
